Source: the NIST ThermoML archive (doi:10.1021/je200793z)

Recorded measurements of surface tension liquid-gas, one per entry
# measurement_setup: 298.15 K
Numbers only here, please. The scale is mN/m.

Examples with their reported surface tension liquid-gas follow.
CCC(C)(C)O [2-methylbutan-2-ol]
23.61
CCC(C)CO (centres undefined) [2-methyl-1-butanol]
23.61
CC(C)CCO [3-methylbutan-1-ol]
24.15

Query: Item CCO [ethanol] has what recorded surface tension liquid-gas?
Result: 21.82

---

Recorded measurements of surface tension liquid-gas, one per entry
# measurement_setup: 293.15 K
± gives the expanded uncertainty stated by the source.
Give me the value, and tack the unit on after it.

Examples with their reported surface tension liquid-gas follow.
CCC(C)(C)O [2-methylbutan-2-ol]
24.04 ± 0.16 mN/m
CC(C)CCO [3-methylbutan-1-ol]
24.5 ± 0.18 mN/m

Query: Item CCC(C)CO (centres undefined) [2-methyl-1-butanol] has what recorded surface tension liquid-gas?
Result: 24.09 ± 0.18 mN/m

Query: Item CCO [ethanol] has what recorded surface tension liquid-gas?
Result: 22.31 ± 0.14 mN/m

---

# measurement_setup: 303.15 K
Recorded measurements of surface tension liquid-gas, one per entry
Numbers only here, please. The scale is mN/m.

Examples with their reported surface tension liquid-gas follow.
CCC(C)CO (centres undefined)
23.14
CC(C)CCO
23.8
CCO
21.41

Let us examine a further case.
Query: Item `CCC(C)(C)O` has what recorded surface tension liquid-gas?
Result: 23.14

---

# measurement_setup: 308.15 K
Recorded measurements of surface tension liquid-gas, one per entry
Numbers only here, please. The scale is mN/m.

Examples with their reported surface tension liquid-gas follow.
CCC(C)CO (centres undefined) [2-methyl-1-butanol]
22.69
CCO [ethanol]
21.04
CC(C)CCO [3-methylbutan-1-ol]
23.36

Let us examine a further case.
Query: Item CCC(C)(C)O [2-methylbutan-2-ol] has what recorded surface tension liquid-gas?
Result: 22.69

---

# measurement_setup: 313.15 K
value_type: surface tension liquid-gas (mN/m)
Numbers only here, please. The scale is mN/m.

CCC(C)CO (centres undefined) [2-methyl-1-butanol]
22.3
CCO [ethanol]
20.62
CCC(C)(C)O [2-methylbutan-2-ol]
22.3

Query: Item CC(C)CCO [3-methylbutan-1-ol] has what recorded surface tension liquid-gas?
Result: 22.96

---

Recorded measurements of surface tension liquid-gas, one per entry
# measurement_setup: 318.15 K
Numbers only here, please. The scale is mN/m.

CCC(C)(C)O
21.86
CCO
20.22

Query: Item CCC(C)CO (centres undefined) has what recorded surface tension liquid-gas?
Result: 21.86

Query: Item `CC(C)CCO` has what recorded surface tension liquid-gas?
Result: 22.57

---

# measurement_setup: 323.15 K
value_type: surface tension liquid-gas (mN/m)
Numbers only here, please. The scale is mN/m.

Query: Item `CCC(C)(C)O` has what recorded surface tension liquid-gas?
Result: 21.44

Query: Item CCC(C)CO (centres undefined) has what recorded surface tension liquid-gas?
Result: 21.44

Query: Item `CC(C)CCO` has what recorded surface tension liquid-gas?
Result: 22.17

Query: Item `CCO` has what recorded surface tension liquid-gas?
Result: 19.82
